System: Vero E6
Experiment: cell viability relative to DMSO; higher = less toxic
Conditions: 72 h; 10000 nM
MEASUREMENT_LABEL: cell viability (%)
Numbers only, in %.

Would you please look over these solved cases?
[[record]]
molecule = "CN(C)C(=O)c1ccc(S(=O)(=O)c2ccc(NC(=O)[C@@](C)(O)C(F)(F)F)c(Cl)c2)cc1"
measurement_label = "cell viability"
result_unit = "%"
value_measured = 90.9

[[record]]
molecule = "N[C@H](C(=O)O)c1ccc(O)c(C(=O)O)c1 [3-carboxy-4-hydroxyphenylglycine-(S)]"
measurement_label = "cell viability"
result_unit = "%"
value_measured = 101

[[record]]
molecule = "O=c1c2ccccc2[se]n1-c1ccccc1"
measurement_label = "cell viability"
result_unit = "%"
value_measured = 104


// input: 6 molecules below; output: cell viability for each
1. Nc1cc(C(F)(F)F)c(-c2cc(N3CCOCC3)nc(N3CCOCC3)n2)cn1
2. O=C(NO)C1(CS(=O)(=O)c2ccc(Oc3ccc(Cl)cc3)cc2)CCOCC1
3. CCOC(=O)c1ccccc1OC(N)=O [ethyl-2-(carbamoyloxy)benzoate]
4. CC1(C)S[C@@H]2[C@H](NC(=O)[C@H](NC(=O)N3CCN(S(C)(=O)=O)C3=O)c3ccccc3)C(=O)N2[C@H]1C(=O)O
5. NCC1CC(=O)N(Cc2ccccc2)C1 (stereo not given)
6. Cc1cc(Nc2ccc(NC(=O)c3ccc(Nc4ccnc5ccccc45)cc3)cc2)nc(N)n1

a:
17.8
94.5
103
100
108
63.9

# molecule Cc1cc(Cn2cnc3c2C[C@@H](C(=O)O)N(C(=O)C(c2ccccc2)c2ccccc2)C3)ccc1N(C)C ; its cell viability = 103

---

For each of the molecules below, state its cell viability.
Test system: Vero E6
Assay: cell viability relative to DMSO; higher = less toxic
Conditions: 72 h; 1 nM
Give bare numbers, in %.

[[record]]
molecule = "Cc1nc(C)c(Cl)c(O)c1Cl [clopidol]"
experimental_target = "Vero E6"
value_measured = 96.9

[[record]]
molecule = "O=C(O[C@H]1C[N+]2(CCCOc3ccccc3)CCC1CC2)C(O)(c1cccs1)c1cccs1 [aclidinium]"
experimental_target = "Vero E6"
value_measured = 103

[[record]]
molecule = "CCCN(CCC)C1Cc2cc(OC)c(OC)cc2C1"
experimental_target = "Vero E6"
value_measured = 103


Provide the reported cell viability of each entry below, same order.
1. Cc1c(-c2ccc(-c3ccccc3F)cc2)nc2ccc(F)cc2c1C(=O)O [brequinar]
2. O=C(O)COc1cccc(-c2ocnc2-c2nc(-c3ccccc3)c(-c3ccccc3)o2)c1
3. CCO/N=C(\C(=O)N[C@@H]1C(=O)N2C(C(=O)[O-])=C(Sc3nc(-c4cc[n+](C)cc4)cs3)CS[C@H]12)c1nsc(NP(=O)(O)O)n1 [ceftaroline-fosamil]

a:
[92.9, 99, 106]

---

Tested on: Caco-2
Assay: cell viability relative to DMSO; higher = less toxic
Conditions: 72 h; 10 nM
MEASUREMENT_LABEL: cell viability (%)
One number for each entry, in %.

Record excerpt, results attached:
[[record]]
compound = "CC[C@@]1(O)C(=O)OCc2c1cc1n(c2=O)Cc2cc3ccccc3nc2-1"
value_measured = 87.6

[[record]]
compound = "N=C(N)c1ccc(OCCCCCOc2ccc(C(=N)N)cc2)cc1"
value_measured = 93.4

[[record]]
compound = "N=C(N)NCCC[C@@H](N)C(=O)N[C@@H](CCCNC(=N)N)C(=O)N1CCC[C@H]1C(=O)N1C[C@H](O)C[C@H]1C(=O)NCC(=O)N[C@@H](Cc1cccs1)C(=O)N[C@@H](CO)C(=O)N1Cc2ccccc2C[C@@H]1C(=O)N1[C@H](C(=O)N[C@@H](CCCNC(=N)N)C(=O)O)C[C@@H]2CCCC[C@@H]21 [icatibant-acetate]"
value_measured = 100


Hey, can you go through the list below and give me cell viability for every item?
1. CCOC(=O)CSCCC1NC(C(=O)O)CS1 (centres undefined)
2. CCCOc1ccc(S(=O)(=O)N2CCN(CCO)CC2)cc1-c1nc2c(CCC)cn(CC)c2c(=O)[nH]1
3. CO/N=C(\C(=O)N[C@@H]1C(=O)N2C(C(=O)OCOC(=O)C(C)(C)C)=C(C)CS[C@H]12)c1csc(N)n1
4. O=C(O)CCCc1ccc(N(CCCl)CCCl)cc1
5. Cc1cc(Nc2ccc(NC(=O)c3ccc(Nc4ccnc5ccccc45)cc3)cc2)nc(N)n1
6. Cc1ccc([N+](=O)[O-])cc1O

a:
1: 80.7; 2: 111; 3: 96.5; 4: 90.6; 5: 114; 6: 105

---

System: Caco-2
Experiment: cell viability relative to DMSO; higher = less toxic
Settings: 72 h; 100 nM
MEASUREMENT_LABEL: cell viability (%)
Numbers only, in %.

[[record]]
compound = "Cc1nc2c([nH]1)-c1ccccc1N(C(=O)c1ccc(NC(=O)c3ccccc3-c3ccccc3)cc1)CC2 [conivaptan]"
value_measured = 91.2


Answer for every listed entry: what is its cell viability? The entries follow.
1. Cc1cc2cc3c(C)cc(=O)oc3c(C)c2o1 [trioxsalen]
2. C[Se]C[C@H](N)C(=O)O [Se-methylselenocysteine]
3. O=C(Oc1ccc([N+](=O)[O-])cc1)N1CCC(C(O)(c2ccc3c(c2)OCO3)c2ccc3c(c2)OCO3)CC1 [JZL-184]

a:
[91.3, 97.2, 100]

---

Test system: U2OS
Test: drug sensitivity score (DSS) for viability; higher = more toxic; extreme values may be limits of the assay
Settings: 72 h
For each record, write down the corresponding drug sensitivity score.

[[record]]
compound = "Nc1nc2c(ncn2COCCO)c(=O)[nH]1 [acyclovir]"
experimental_target = "U2OS"
measurement_label = "drug sensitivity score"
value_measured = 0

[[record]]
compound = "N=C(N)c1ccc(OCCCCCOc2ccc(C(=N)N)cc2)cc1 [pentamidine]"
experimental_target = "U2OS"
measurement_label = "drug sensitivity score"
value_measured = 1.8

[[record]]
compound = "CC(=O)N[C@@H](CS)C(=O)O [acetylcysteine]"
experimental_target = "U2OS"
measurement_label = "drug sensitivity score"
value_measured = 0

[[record]]
compound = "C=CCN1CC[C@]23c4c5ccc(O)c4O[C@H]2/C(=N/NC(=O)c2ccccc2)CC[C@@]3(O)[C@H]1C5 [naloxone-benzoylhydrazone]"
experimental_target = "U2OS"
measurement_label = "drug sensitivity score"
value_measured = 0


Dear colleague, could you send me drug sensitivity score for each of the items below? Thanks.
1. N[C@H](Cc1cc(I)c(Oc2ccc(O)c(I)c2)c(I)c1)C(=O)O [liothyronine-(isomer)]
2. CC1(C)OC[C@@H](COC(=O)CCc2ccc(OC[C@@H](O)CNCCNC(=O)N3CCOCC3)cc2)O1 [landiolol]

a:
[0, 0]

Record drug sensitivity score for all entries; do not skip any.
1. Fc1ccc([C@@H]2CCNC[C@H]2COc2ccc3c(c2)OCO3)cc1 [paroxetine]
2. CS(=O)(=O)OCCCCOS(C)(=O)=O [busulfan]
3. O=c1c2ccccc2oc2ccccc12 [xanthone]
4. Clc1ccc(N2CCN(Cc3c[nH]c4ncccc34)CC2)cc1
5. N=C(Nc1ccccc1)c1cccs1 [LTA]
6. CC1(C)S[C@@H]2[C@H](NC(=O)[C@H](NC(=O)N3CCN(S(C)(=O)=O)C3=O)c3ccccc3)C(=O)N2[C@H]1C(=O)O [mezlocillin]

a:
1: 0; 2: 0; 3: 0; 4: 0; 5: 0; 6: 0

Dear reader, for each entry below, please note its drug sensitivity score.
1. Nc1n[nH]c2nnc(-c3c(-c4ccccc4)nn4ccccc34)cc12
2. CC(C)(C)NC(=O)[C@@H](c1cccnc1)N(C(=O)c1ccco1)c1ccc(C(C)(C)C)cc1 [ML188]
3. CN1CCC[C@@H](CC2c3ccccc3Sc3ccccc32)C1 (racemic) [metixene]
4. CC(C)Oc1cccc(CC(=O)N2CCC[C@](CC[N+]34CCC(c5ccccc5)(CC3)CC4)(c3ccc(Cl)c(Cl)c3)C2)c1
5. CO/N=C(\C(=O)N[C@@H]1C(=O)N2C(C(=O)OCOC(=O)C(C)(C)C)=C(C)CS[C@H]12)c1csc(N)n1 [cefetamet-pivoxil]
6. CC[C@H]1OC(=O)C[C@@H](O)[C@H](C)[C@@H](O[C@@H]2O[C@H](C)C[C@H](N(C)C)[C@H]2O)[C@@H](CC=O)C[C@@H](C)C(=O)/C=C/[C@]2(C)O[C@H]2[C@@H]1C [rosamicin]
7. CC(C)(CC(=O)N1CCCC1)NCC(=O)N1C[C@@H](F)C[C@H]1C#N [DBPR108]
8. Cn1nnc(-c2ccc(-c3ccc(N4C[C@H](COP(=O)(O)O)OC4=O)cc3F)cn2)n1 [tedizolid-phosphate]

a:
0
0
0
0
0
3.5
0
0

List drug sensitivity score for every entry below, keeping the order given.
1. Cc1cccc(/C=N/Nc2cc(N3CCOCC3)nc(OCCc3ccccn3)n2)c1 [STA-5326]
2. N=C(N)c1ccc(N2CCN(C3CCN(CC(=O)O)CC3)CC2)cc1
3. CO[C@H]1C[C@H](O[C@H]2CC[C@@]3(C)[C@H](CC[C@@H]4[C@@H]3CC[C@]3(C)[C@@H](C5=CC(=O)OC5)[C@@H](OC(C)=O)C[C@]43O)C2)O[C@@H](C)[C@@H]1O [oleandrin]
4. Cc1nc(=O)c2cc(CN(C)c3ccc(C(=O)N[C@@H](CCC(=O)O)C(=O)O)s3)ccc2[nH]1 [raltitrexed]
5. COc1ccc2c(c1)c(C1=C(c3c[nH]c4ccccc34)C(=O)NC1=O)cn2CCCN(C)C [go-6983]
6. O=C(Oc1ccc([N+](=O)[O-])cc1)N1CCC(C(O)(c2ccc3c(c2)OCO3)c2ccc3c(c2)OCO3)CC1 [JZL-184]
7. O=C(N[C@H](Cc1ccccc1)C(=O)O)c1sc2cc(F)ccc2c1Cl [CU-CPT-4a]

a:
1: 1.5; 2: 0; 3: 28.1; 4: 0; 5: 1.6; 6: 0; 7: 0

For every item in the list below, what is its measured drug sensitivity score?
1. O=C(O)COc1cccc(-c2ocnc2-c2nc(-c3ccccc3)c(-c3ccccc3)o2)c1
2. C1CCC2(CC1)CCNCC2 [4,4-pentamethylenepiperidine]
3. Cc1ccc2c(c1)Cc1c(C(=O)NN3CCCCC3)nn(-c3ccc(Cl)cc3Cl)c1-2 [GP1a]
4. Nc1cc(C(F)(F)F)c(-c2cc(N3CCOCC3)nc(N3CCOCC3)n2)cn1 [buparlisib]
5. CCOC(=O)c1ccccc1OC(N)=O [ethyl-2-(carbamoyloxy)benzoate]
6. COC(=O)/C=C/c1cccc(N(Cc2ccc(-c3ccc(N(C)C)cc3)cc2)C(=O)C2CCCCC2)c1 [fexaramine]

a:
1. 0
2. 0
3. 0
4. 7.9
5. 0
6. 0.1
